- Test system: COLO 205 colon
- method: NCI tumour cell line growth inhibition, 48 h
assayEndpoint: TGI

These recorded examples may help you get a feel for the data.
O=C(/C=C/c1ccccn1)c1ccccc1    14.6 µM
CC1(C)N=C(N)N=C(N)N1c1ccc(CCCCCCc2ccc(S(=O)(=O)F)cc2)cc1    12.8 µM
CC[P+](c1ccccc1)(N(C)C)N(C)C    > 100 µM

Provide TGI values for the following items, in order.
1. CCCCCCCCCCCCCCCC[N+](C)(C)CCl
2. O=C(O)C1C2OC(C(Br)C2Br)C1C(=O)O (stereo unspecified)
3. Cc1cc(C)c(C2=NO[C@@H]3[C@H]2C(=O)C=C2N(Cc4ccccc4)CCO[C@@]23O)c(C)c1
4. COc1cc(/C=C2\C(=O)N(c3ccc(Cl)cc3)C(c3ccccc3)S2(=O)=O)cc(OC)c1OC (stereo unspecified)

1. 4.16 µM
2. > 100 µM
3. > 100 µM
4. > 32.8 µM

Lab note: each molecule below needs its TGI filled in.
1. O=C1Cc2c([nH]c3ccccc23)-c2cc(Br)ccc2N1
2. Clc1ccc(-c2nn3c(COc4ccc(OCc5nnc6sc(-c7ccc(Cl)cc7)nn56)c(Cl)c4)nnc3s2)cc1
3. CCOC1OC(C)(C=C(C#N)C#N)CCC1C (stereo unspecified)
4. CC(=O)OCCc1cc2ccccc2oc1=O

1: > 100 µM; 2: > 100 µM; 3: > 100 µM; 4: > 100 µM
